Reference source: patent US6528504B2

Recorded melting point for the following compounds

A selection of reference data follows.
COc1ccc(CCN(C)CCN2c3ccccc3COc3ccccc32)cc1.Cl	139 to 140 °C
COc1ccc(CCN2CC[C@@H](N3c4ccccc4COc4ccccc43)C2)cc1.Cl	224 to 226 °C
CN(C)c1ccc(CCN2CC[C@@H](N3c4ccccc4COc4ccccc43)C2)cc1.Cl	219 to 220 °C

# ---- query compound ----
Q: Report melting point for COc1ccc(CCN2CCCC[C@@H]2CN2c3ccccc3COc3ccccc32)cc1.Cl please.
A: 199 to 201 °C
